tested on: HOP-62 NSCLC; assay: NCI-60 one-dose screen, 48 h (100 = growth as untreated, 0 = no growth, -100 = all killed); settings: 10 µM unless noted
This is part of a sample that, as a whole, favours compounds with a hit. Of some 83,000 tested, about 20% had one in any assay.
Under this convention, yes (1) denotes growth strictly below 70% and no (0) denotes growth at or above 70%.

COC(=O)c1ccc(NC(N)=NCCC(C)(C)c2ccc(C(F)(F)F)cc2)nc1; yes (1)
COc1ccccc1NC(=O)OCC12COCN1COC2; no (0)
Oc1ccc(-c2cnc(-c3ccccc3)[nH]2)c(O)c1; yes (1)
Nc1cc2nc3ccccc3oc-2cc1=O; yes (1)
COc1ccc(/C(=C\c2ccc3c(c2)OCO3)C(=O)Nc2nc3ccccc3s2)cc1; no (0)
CNC(=O)c1cc(Oc2ccc(NC(=O)c3nc(S(C)(=O)=O)n(C)c3-c3ccc(F)cc3)cc2)ccn1; no (0)
COc1ccccc1/C=N\NC(=S)Nc1ccc(F)cc1; no (0)
CCCCn1c(C)nc2cc(Nc3nc(Cl)nc4nc[nH]c34)ccc21; yes (1)
COc1ccc(/C=C(/C(=O)N2CCN(c3ccccc3)CC2)c2cc(OC)c(OC)c(OC)c2)cc1O; yes (1)

---

tested on: RXF 393 renal; experiment: NCI-60 one-dose screen, 48 h (100 = growth as untreated, 0 = no growth, -100 = all killed); conditions: 10 µM unless noted
The panel holds about 83,000 compounds, 20% with a hit somewhere; the sample as a whole holds those more often.
The entries below come with measured growth values attached.
quantityKind: growth (%)

C#CC[C@@H]1C[C@]2(C)[C@H]3CC[C@@H]4[C@H]5C(C(=C)C)CC[C@]5(C(=O)NCCCN5CCN(CCCN)CC5)CC[C@@]4(C)[C@]3(C)CC[C@H]2C(C)(C)[C@H]1OC(C)=O (some centres undefined); -87.4
COc1ccc2c(c1)CCCC21C(=O)Nc2c(Cl)cccc21 (centres undefined); 86.5
CCOC(=O)c1ccccc1SC(C[N+](=O)[O-])c1ccccc1 (centres undefined); 62.9
Cc1nn(-c2ccc(Cl)cc2)c(=O)n1CCN1CCOCC1; 42.1
C=CCn1c(SCC(=O)Nc2ccc(C(=O)/C=C/c3ccc(Cl)cc3)cc2)nnc1-c1ccc(Cl)cc1; 99.9
C=CCn1c(SCC(=O)Nc2ccc(/C(C)=N\O)cc2)nnc1-c1cc(-c2ccc(Cl)cc2)nc2ccccc12; 47
Cc1ccc2cc3c(NC(=O)c4cccnc4)nn(C)c3nc2c1; 89.3
CC(C)NCCCCCNc1cc(O)cc2cccnc12; 74.7
CC1=C(C(=O)Nc2ccc(F)cc2)C(c2ccc(Cl)cc2)C2=C(CC(C)(C)CC2=O)N1 (centres undefined); 96.4

---

Test system: MDA-MB-435 melanoma
Assay: NCI-60 one-dose screen, 48 h
Details: 10 µM unless noted
Experimental: Growth inhibition of the MDA-MB-435 human Melanoma tumor cell line is measured as a screen for anti-cancer activity. Cells are grown in 96 well plates and exposed to the test compound for 48 hours. Compounds are tested at a single concentration, which is 10^-5 M for most compounds. The reported endpoint is percent growth (GI% or GIPRCNT), where numbers from 0 - 100% represent growth inhibition, and numbers from -100% - 0 represent cell death. […]
About 83,000 compounds went through this panel and 20% of them were active in at least one assay; those are over-represented in the sample as a whole. Activity calls are given as the source filed them. The calls were made as follows: active = growth percent below 10; inactive = the rest.
Classes used: T (active), F (inactive)

O=C(O)/C=C(\c1nc2ccc([N+](=O)[O-])cc2[nH]1)c1cc(Cl)ccc1O; F
CC(=O)[C@H]1CC[C@H]2[C@@H]3CC[C@H]4CC=CC[C@]4(C)[C@H]3CC[C@]12C; F
Clc1ccc2c(c1)-n1cccc1C(c1ccc3ccccc3c1)=NC2; F
COc1ccc(Nc2ncnc3c2sc2nc(C)cc(C)c23)cc1; F
COc1cc(-c2n/c(=C\c3c(O)[nH]c4cc(Cl)ccc34)cc3c2=Nc2ccccc2-3)cc(OC)c1OC; F
FC(F)(F)c1ccc(/C=N/Nc2nnc3n2N=C(c2ccc(Cl)cc2)CS3)cc1; F
NS(=O)(=O)c1ccc(N2N=C(c3ccc(Br)cc3)CC2c2cn(-c3ccccc3)nc2-c2ccc(Cl)cc2)cc1 (stereo not given); F
CC(=O)c1ccc(-n2c(-c3cc(-c4ccsc4)n[nH]3)n[nH]c2=S)cc1; F
COc1cc(NC(C)CCCN)c2ncccc2c1Oc1ccc(Cl)cc1 (stereo not given); F
Cc1cc(N=Nc2ccc(-c3ccc(N=Nc4ccc(O)c(C(=O)O)c4)cc3)cc2)c(N)c(N=Nc2ccc(C(=O)O)cc2)c1N; F
N#Cc1nc(-c2ccc(Cl)cc2)cc(-c2ccc(Nc3nc(N4CCCCC4)nc(N4CCCCC4)n3)cc2)c1N; F
COc1ccc(C2C3CCc4ccccc4C3=NN2C(=O)c2cc(OC)c(OC)c(OC)c2)cc1O (stereo not given); F
CN1CCN(Cc2ccc(NC(=O)c3cncc(C#Cc4ncc5cnccn45)c3)cc2C(F)(F)F)CC1; F
CC(CN1CCN(CCOCCO)CC1)CN1c2ccccc2Sc2ccc(Cl)cc21 (stereo not given); F
COc1cc2cc(C(=O)Nc3ccccc3)c(N)nc2cc1OC; T
Cc1ccc(Nc2nc(NCCO)c3ccccc3n2)cc1C; T
CCOC(=O)NNc1cccc(Cl)c1; F
COc1cc(C)c2c(=O)c3c(oc2c1)C(=O)c1c(O)c(OC)cc(O)c1C3=O; F
CCCCCCCCCCCCCCCC1=NCC[N+]1(CCO)CCO; F
COc1cccc(NC(=O)[C@H](C(C)C)n2c(=O)[nH]c3ccccc3c2=O)c1; F
